# Test system: NCI-H522 lung
# method.notes: NCI tumour cell line growth inhibition, 48 h

molecule	GI50
CCCC(CCC)NCC(O)c1cc(-c2ccc(C(F)(F)F)cc2)nc(C(F)(F)F)c1 (stereo not given)	1710 nM
COc1ccc2[nH]c3c4[nH]c5ccc(OC)cc5c4c4c(c3c2c1)C(=O)NC4=O	2320 nM
COc1cc2c(cc1OCCCCC(=O)Nc1cc3c4ccccc4ccc3c3ccccc13)N=C[C@@H]1CCCN1C2=O	4250 nM
Cc1cc(C(=O)Nc2ccc3cc(CN4CCOCC4)ccc3n2)c(C)n1-c1ccccc1	2670 nM
CCCCC(CC)COC(=O)C[N+](C)(C)CCOC(c1ccccc1)c1ccccc1 (stereo not given)	1750 nM

====

# System: UO-31 renal
# method.notes: NCI tumour cell line growth inhibition, 48 h

molecule	TGI
Cc1ccc2c(c1)CC1(Cc3ccccc3C1=O)C2=O (stereo not given)	> 100 µM
C=CCCCCC/C=C\[C@@H](O)C#CC#C/C=C/CO	> 100 µM
N#Cc1[nH]c(=O)n(-c2ccccc2)c1N	> 10 µM
COC(=O)C12CC3CC(CC(C(=O)O)(C3)C1)C2	> 100 µM
CN1CCN(CCCNc2nc3ccc(Oc4ccc(NC(=O)Nc5cc(C(F)(F)F)ccc5F)cc4)cc3[nH]2)CC1	> 25 µM

====

Let's look at some compounds and their measured TGI.
# Test system: K-562 leukemia
# method.notes: NCI tumour cell line growth inhibition, 48 h

compound	assayed.system	TGI
CSc1nnc(SC)nn1	K-562 leukemia	27.4 µM
NNC(=S)N/N=C(/C(=O)Nc1ccc(Cl)c(Cl)c1)C(C1OC(=O)c2ccccc21)[N+](=O)[O-] (centres undefined)	K-562 leukemia	> 100 µM
NNC(=O)c1c(SCc2ccccc2)nc2c3ccccc3ccn12	K-562 leukemia	57.9 µM
COc1ccc(C(=O)c2cc(C)c(OC)c(C)c2)c(OC)c1O	K-562 leukemia	> 100 µM
COC(=O)CC1N=C(NC#N)N(CCc2c[nH]c3ccccc23)C1=O (centres undefined)	K-562 leukemia	> 100 µM
CCC(C)NC1=NCC(C)S1 (centres undefined)	K-562 leukemia	> 100 µM
N#Cc1cc(-c2cc3ccccc3o2)oc1N	K-562 leukemia	> 100 µM
Cn1cc(C2(C)CC(C)(C)c3c2n(C)c2ccccc32)c2ccccc21 (centres undefined)	K-562 leukemia	> 100 µM
Cc1ccc([N+](=O)[O-])c2c(NCCC[N+](C)(C)[O-])c3ccccc3nc12	K-562 leukemia	> 38.3 µM
CCOP(=O)(OCC)C(c1ccc(F)cc1)N(C(=O)NC(F)(F)F)c1cccc(C(F)(F)F)c1 (centres undefined)	K-562 leukemia	> 100 µM
CC1S/C(=N\N=C2/C(=O)Nc3ccc(Br)cc32)N(C2CCCCC2)C1=O (centres undefined)	K-562 leukemia	> 100 µM
O=C1C2C3C=C4c5ccccc5N(c5ccccc5)C4(C2C(=O)N1c1ccc([N+](=O)[O-])cc1)[C@H]1C(=O)N(c2ccc([N+](=O)[O-])cc2)C(=O)[C@@H]31 (some centres undefined)	K-562 leukemia	> 100 µM
CCOC(=O)c1cn2c(n1)sc1cc(Cl)ccc12	K-562 leukemia	> 100 µM
CC(C)OC(=O)/C=C/C(=O)O/C=C/[N+](=O)[O-]	K-562 leukemia	66.8 µM

====

# Tested on: LXFL 529 NSCLC
# method.notes: NCI tumour cell line growth inhibition, 48 h
measured.endpoint: TGI

molecule	result
COc1cc2cc3c4cc(OC)c(OC)cc4cc[n+]3c(C)c2cc1OC (tested in a mixture with another compound)	> 100 µM
c1ccc(C2N3CCCCC3[C@@H]3c4[nH]c5ccccc5c4CCN23)nc1 (stereo partly drawn)	> 100 µM
CCOC(=O)N[C@@H]1C(CC(=O)OC)O[C@H]2OC(C)(C)O[C@H]21 (stereo partly drawn)	> 100 µM

====

# Tested on: NCI-H226 lung
# method.notes: NCI tumour cell line growth inhibition, 48 h; in the data active means GI50 below about 0.43 µM; inactive means the rest
Outcomes: active, inactive

compound	assayed.system	class.assignment
C[C@@H]1Nc2cc(NC(=O)OCCF)nc(N)c2N=C1c1ccccc1	NCI-H226 lung	active
CCNCCNc1cc(-c2ccc(C(F)(F)F)cc2)c(C#N)c2nc3ccccc3n12	NCI-H226 lung	inactive
O=C1/C(=C(/c2ccccc2)N2CCOCC2)Cc2ccccc21	NCI-H226 lung	inactive
CCCC(CCC)NCC(O)c1cc(-c2ccc(C(F)(F)F)cc2)nc(C(F)(F)F)c1 (configuration not stated)	NCI-H226 lung	inactive
C=C(C)[C@@H]1CC[C@]2(CO)CC[C@]3(C)[C@H](CC[C@@H]4[C@@]5(C)C=C(C#N)C(=O)C(C)(C)[C@@H]5CC[C@]43C)[C@@H]12	NCI-H226 lung	inactive
COc1cc2c3c(n(CCCN)c(=O)c2cc1OC)-c1ccc(C#N)cc1C3=O	NCI-H226 lung	inactive
COc1ccc(/C=C/c2c(C(=O)/C=C/c3ccccc3)c(C)nc3ccccc23)cc1	NCI-H226 lung	inactive
Cc1cc(C)c(NC(=O)c2sc3nc4c(cc3c2N)C(=O)CCC4)c(C)c1	NCI-H226 lung	inactive
CC/C=C\C[C@H](O)C/C=C1/C(=O)C=C[C@@H]1C/C=C\CCCC(=O)OC	NCI-H226 lung	inactive
COc1ccc(C(=O)c2cc(C)c(OC)c(C)c2)cc1OC(=O)CCl	NCI-H226 lung	inactive
COc1cc2ncnc(-n3ncc4cc(NC(=O)Nc5ccccc5)ccc43)c2cc1OC	NCI-H226 lung	inactive
COc1cc2oc(-c3ccc(O)cc3)c(OC)c(=O)c2c(O)c1OC	NCI-H226 lung	inactive

====

# System: SF-295 CNS
# method.notes: NCI tumour cell line growth inhibition, 48 h

compound	TGI
CC(CC[C@@]1(C)C(=O)CCC2O[C@]21C)[C@H]1C[C@@H](c2ccoc2)OC1=O (some centres not stated)	> 100 µM
CCc1nc2cc(F)c(/C=C/C(=O)NO)cc2c(=O)n1CCc1ccccc1	0.617 µM
CC(C)=C[C@H]1CCC2(OCCO2)[C@]1(C)COCc1ccccc1	> 100 µM
COc1cc(-c2nc3ccccn3c2/N=C/c2cc(Br)cc(Br)c2O)ccc1O	50 µM
Clc1ccc(C[P+](c2ccccc2)(c2ccccc2)c2ccccc2)c(Cl)c1	12.3 µM
CO/C=C(/C(=O)OC)c1ccccc1COc1cccc(C(F)(F)F)c1	> 100 µM
O=C(CC(=O)n1nc(-c2ccccc2)c(N=Nc2ccc(Cl)cc2)c1-c1ccccc1)Nc1ccc(Cl)cc1	> 100 µM
NNC(=O)c1c(SCc2ccccc2)nc2c3ccccc3ccn12	> 100 µM
COc1ccc(C(=O)c2cc(C)c(OC)c(C)c2)c(OC)c1O	> 100 µM
CC(=O)Oc1ccc2cc(-c3ccccc3OC(C)=O)c(=O)oc2c1	> 100 µM
CCCC(CCC)NCC(O)c1cc(-c2ccc(C(F)(F)F)cc2)nc(C(F)(F)F)c1 (configuration not stated)	3.78 µM
CN(C)CCCN=c1c2ccccc2n(O)c2ccccc12	> 100 µM
CC(=O)ONC(C(=O)C(C)(C)C)C(=O)C(C)(C)C	> 100 µM
O=C(O)CNS(=O)(=O)c1ccc(NC(=O)c2ccc([N+](=O)[O-])cc2)cc1	> 100 µM
CN(C)CCNc1ccc(CO)c2oc3ccc(O)cc3c(=O)c12	41.5 µM
O=C1C2C3C=C4c5ccccc5N(c5ccccc5)C4(C2C(=O)N1c1ccc([N+](=O)[O-])cc1)[C@H]1C(=O)N(c2ccc([N+](=O)[O-])cc2)C(=O)[C@@H]31 (some centres not stated)	> 100 µM
CC1CC2=C(S(=O)(=O)c3ccccc3)CC(S(=O)(=O)c3ccccc3)(S(=O)(=O)c3ccccc3)CC21 (configuration not stated)	> 100 µM
Cc1ccc([N+](=O)[O-])c2c(NCCC[N+](C)(C)[O-])c3ccccc3nc12	> 100 µM
O=C(c1cccs1)N1CCc2ccccc2C1	> 100 µM
CC1=CC(=O)C=CC1=O	64.3 µM
CCOC(=O)N[C@@H]1C(CC(=O)OC)O[C@H]2OC(C)(C)O[C@H]21 (some centres not stated)	> 100 µM
CCOC(=O)C1SC(=Nc2ccc(C)c(C)c2)N=C1C (configuration not stated)	> 100 µM
COc1ccc(C(=O)c2cc(C)c(OC)c(C)c2)cc1OC(=O)CCl	> 86 µM
COc1cc2[nH]c3c(c2cc1OC)CCN[C@]31CC[C@]2(CC3c4c(cc(OC)c(O)c42)CCN3C)C[C@H]1OC (some centres not stated)	36.4 µM
c1cnn(CN(Cn2cccn2)Cn2cccn2)c1	> 100 µM
Nc1ccc(Cc2c(N)[nH]c(=O)[nH]c2=O)cc1	> 100 µM
Cn1cc(C2(C)CC(C)(C)c3c2n(C)c2ccccc32)c2ccccc21 (configuration not stated)	> 100 µM
CC1=CCC(O)C=CC(C)C(O)C(C)C=C(C)C(=O)c2c(O)c(C)cc3c2C(=O)C(N)=C(NC(=O)/C=C\C=C/C=CC(C)C(O)CC1=O)C3=O (configuration not stated)	> 100 µM
CCOC(=O)Cc1nc2cc(F)c(F)cc2[nH]c1=O	> 100 µM
Cn1c([C@H](C#N)c2ncccc2[N+](=O)[O-])nc2ccccc21	> 100 µM
O=c1cc(-c2ccc(Oc3ccccc3)cc2)[nH]c2cc3c(cc12)OCO3	> 100 µM
CC(C)=CCC(O)[C@](C)(O)[C@H]1[C@H](O)C[C@@]2(C)[C@@H]3CCc4cc(O)c(OC5OC(CO)C(O)C(O)C5O)cc4C3(C)C(=O)C[C@]12C (some centres not stated)	> 100 µM
